meta.source: patent US7928140B2

Target Of Assay: PI3K β (Homo sapiens, UniProt P42338)
Construct: Full length p110 subunits of PI3K α, β and δ, N-terminally labeled with polyHis tag; polyHis (N)
Sequence (P42338 whole entry): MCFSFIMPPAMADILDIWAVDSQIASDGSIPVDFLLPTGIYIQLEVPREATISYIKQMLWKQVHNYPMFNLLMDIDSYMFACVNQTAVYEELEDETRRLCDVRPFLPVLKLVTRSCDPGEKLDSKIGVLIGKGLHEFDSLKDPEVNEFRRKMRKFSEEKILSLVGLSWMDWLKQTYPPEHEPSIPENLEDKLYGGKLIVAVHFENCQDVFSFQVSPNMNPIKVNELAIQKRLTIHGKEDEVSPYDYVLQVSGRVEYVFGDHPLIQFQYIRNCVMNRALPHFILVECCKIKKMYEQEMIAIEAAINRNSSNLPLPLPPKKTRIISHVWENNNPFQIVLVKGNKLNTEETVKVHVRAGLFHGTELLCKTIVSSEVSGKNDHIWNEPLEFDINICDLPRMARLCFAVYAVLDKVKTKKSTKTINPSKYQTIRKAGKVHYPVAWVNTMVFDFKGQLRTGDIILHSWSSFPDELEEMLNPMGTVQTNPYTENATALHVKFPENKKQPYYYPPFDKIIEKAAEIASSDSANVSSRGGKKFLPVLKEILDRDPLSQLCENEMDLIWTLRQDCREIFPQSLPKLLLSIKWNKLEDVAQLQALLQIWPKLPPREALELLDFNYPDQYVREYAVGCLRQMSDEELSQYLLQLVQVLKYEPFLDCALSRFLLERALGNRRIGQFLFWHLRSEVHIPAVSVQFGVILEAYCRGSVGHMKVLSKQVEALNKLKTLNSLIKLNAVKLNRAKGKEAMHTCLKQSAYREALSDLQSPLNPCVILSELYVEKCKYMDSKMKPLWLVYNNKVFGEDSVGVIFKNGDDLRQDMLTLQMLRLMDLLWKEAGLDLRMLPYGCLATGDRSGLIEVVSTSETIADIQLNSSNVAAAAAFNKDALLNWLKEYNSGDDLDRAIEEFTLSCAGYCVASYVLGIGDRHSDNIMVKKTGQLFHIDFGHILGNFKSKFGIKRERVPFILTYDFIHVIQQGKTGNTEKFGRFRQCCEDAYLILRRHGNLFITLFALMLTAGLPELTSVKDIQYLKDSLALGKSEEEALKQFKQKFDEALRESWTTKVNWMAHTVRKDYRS
Sequence (P27986 whole entry partner): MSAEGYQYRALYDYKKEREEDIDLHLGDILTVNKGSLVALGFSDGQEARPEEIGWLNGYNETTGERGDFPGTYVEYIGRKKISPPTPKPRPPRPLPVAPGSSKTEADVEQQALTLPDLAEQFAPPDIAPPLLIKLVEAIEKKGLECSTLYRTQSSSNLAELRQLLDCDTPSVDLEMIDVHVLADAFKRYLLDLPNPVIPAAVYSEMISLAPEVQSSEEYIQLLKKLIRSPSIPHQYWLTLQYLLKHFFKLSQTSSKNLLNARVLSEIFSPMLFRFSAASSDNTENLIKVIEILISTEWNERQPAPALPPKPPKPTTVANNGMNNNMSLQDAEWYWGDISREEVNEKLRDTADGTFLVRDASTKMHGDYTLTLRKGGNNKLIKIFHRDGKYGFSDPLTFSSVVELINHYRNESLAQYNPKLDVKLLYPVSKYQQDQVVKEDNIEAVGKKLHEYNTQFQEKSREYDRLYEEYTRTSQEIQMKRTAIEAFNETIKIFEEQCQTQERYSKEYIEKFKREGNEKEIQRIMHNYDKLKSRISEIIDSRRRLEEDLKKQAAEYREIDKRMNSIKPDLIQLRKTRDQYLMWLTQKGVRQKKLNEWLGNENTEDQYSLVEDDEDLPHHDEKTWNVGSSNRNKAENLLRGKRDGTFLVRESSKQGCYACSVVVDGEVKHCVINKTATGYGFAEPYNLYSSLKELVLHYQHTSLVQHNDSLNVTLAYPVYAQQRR
Assay Summary: In vitro PI3 kinase enzyme assay (beta), ATP loss, bioluminescence
Condition Label: read-out: PI3Kβ ATP loss IC50
Quantity: IC50 (nM)

Known IC50 results, listed for orientation:
compound_string=COc1ccc(S(=O)(=O)Nc2nccc(-c3ccc4nc(NC(C)=O)sc4c3)n2)cc1 unit_name=nM value_reported=67.2
compound_string=CN(C)c1cc(-c2ccc3nc(NC(=O)Oc4ccccc4)sc3c2)cnc1Cl unit_name=nM value_reported=2460
compound_string=COc1ccc(S(=O)(=O)Nc2cc(-c3ccc4nc(NC(C)=O)sc4c3)cnc2C#N)cc1 unit_name=nM value_reported=20.9
compound_string=CC(=O)Nc1nc2ccc(-c3ccnc(NC4CCOCC4)n3)cc2s1 unit_name=nM value_reported=13100
compound_string=Nc1nc2ccc(-c3ccnc(NCCCc4ccccc4)n3)cc2s1 unit_name=nM value_reported=455
compound_string=CC(=O)Nc1nc2ccc(-c3cccc(N(C)S(=O)(=O)c4cccc(C)c4)n3)cc2s1 unit_name=nM value_reported=294
compound_string=CC(=O)Nc1nc2ccc(-c3cnc(Cl)c(NS(=O)(=O)c4ccc(C(F)(F)F)cc4)c3)cc2s1 unit_name=nM value_reported=7.4
compound_string=CC(=O)Nc1nc2ccc(-c3ccnc(Sc4ccccc4F)n3)cc2s1 unit_name=nM value_reported=307
compound_string=CC(=O)Nc1nc2ccc(-c3cnc(OC(F)F)cc3C)cc2s1 unit_name=nM value_reported=27500
compound_string=CNc1nc2ccc(-c3cnc(Cl)c(NS(=O)(=O)c4ccc(C(C)=O)cc4)c3)cc2s1 unit_name=nM value_reported=22.2

1 = COc1cc(C)c(-c2ccc3nc(NC(C)=O)sc3c2)cn1
2 = COc1ccc(S(=O)(=O)Nc2cc(-c3ccc4nc(NC(C)=O)sc4c3)cnc2C)cc1
3 = CC(=O)Nc1nc2ccc(-c3ccnc(Sc4cccc(Cl)c4)n3)cc2s1
// ascending sort on recorded IC50 In plain terms: list the labels in the order you were asked to.
2, 3, 1

I = CNc1nc2ccc(-c3cnc(Cl)c(NS(=O)(=O)c4c(C)cccc4Cl)c3)cc2s1
II = CC(=O)Nc1nc2ccc(-c3ccnc(OCc4ccc5c(c4)OCO5)n3)cc2s1
// which entry reports the smaller IC50, I or II ? Please indicate the selected item by its label.
I
(I: 42.3 nM, II: 25100 nM)

###

Target Of Assay: PI3K α (Homo sapiens, UniProt P42336)
Construct: Full length p110 subunits of PI3K α, β and δ, N-terminally labeled with polyHis tag; polyHis (N)
Sequence (P42336 whole entry, species assumed, one chain of several): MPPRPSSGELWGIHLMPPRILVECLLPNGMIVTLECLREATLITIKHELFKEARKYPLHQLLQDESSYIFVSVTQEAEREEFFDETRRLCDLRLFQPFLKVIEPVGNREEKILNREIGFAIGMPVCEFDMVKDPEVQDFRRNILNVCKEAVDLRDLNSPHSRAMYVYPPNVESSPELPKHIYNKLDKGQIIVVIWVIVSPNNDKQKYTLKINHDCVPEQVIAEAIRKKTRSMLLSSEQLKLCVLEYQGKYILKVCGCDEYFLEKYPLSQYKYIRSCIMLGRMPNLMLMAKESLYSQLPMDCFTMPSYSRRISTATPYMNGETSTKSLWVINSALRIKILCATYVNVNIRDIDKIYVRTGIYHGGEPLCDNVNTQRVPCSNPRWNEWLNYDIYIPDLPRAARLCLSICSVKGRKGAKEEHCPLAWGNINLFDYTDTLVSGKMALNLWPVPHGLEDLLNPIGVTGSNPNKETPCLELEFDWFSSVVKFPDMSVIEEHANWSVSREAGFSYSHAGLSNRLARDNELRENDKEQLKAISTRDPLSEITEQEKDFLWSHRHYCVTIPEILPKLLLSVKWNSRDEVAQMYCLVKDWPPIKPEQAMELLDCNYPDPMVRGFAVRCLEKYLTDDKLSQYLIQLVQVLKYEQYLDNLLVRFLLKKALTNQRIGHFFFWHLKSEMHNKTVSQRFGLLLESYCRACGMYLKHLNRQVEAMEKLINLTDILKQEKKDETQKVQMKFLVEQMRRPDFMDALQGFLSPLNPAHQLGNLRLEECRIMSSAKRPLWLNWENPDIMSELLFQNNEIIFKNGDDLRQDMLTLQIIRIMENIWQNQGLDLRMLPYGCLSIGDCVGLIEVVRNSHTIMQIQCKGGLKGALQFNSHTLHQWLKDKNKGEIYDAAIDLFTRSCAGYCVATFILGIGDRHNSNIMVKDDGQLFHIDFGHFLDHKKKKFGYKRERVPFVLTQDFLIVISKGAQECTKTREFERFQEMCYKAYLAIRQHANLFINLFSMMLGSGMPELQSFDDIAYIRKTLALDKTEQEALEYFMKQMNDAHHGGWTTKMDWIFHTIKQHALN
Assay Summary: In vitro PI3 kinase enzyme assay (alpha), ATP loss, bioluminescence
Condition Label: read-out: PI3Kα ATP loss IC50
Quantity: IC50 (nM)

Known IC50 results, listed for orientation:
compound=CC(=O)Nc1nc2ccc(-c3cnc(OCCN(C)C)c(NC(C)C)c3)cc2s1 quantity=IC50 value_reported=914
compound=CC(=O)Nc1nc2ccc(-c3ccnc(N(C)S(=O)(=O)c4ccc(F)cc4)n3)cc2s1 quantity=IC50 value_reported=324
compound=CC(=O)Nc1nc2ccc(-c3cnc(Cl)c(O)c3)cc2s1 quantity=IC50 value_reported=5

1 = CCC(=O)Nc1nc2ccc(-c3ccnc(OCc4ccccc4)n3)cc2s1
2 = CC(=O)c1cncc(-c2ccc3ncsc3c2)c1
3 = COCCNc1nccc(-c2ccc3nc(N)sc3c2)n1
// ascending sort on recorded IC50 Answer by listing the labels in the order asked for.
1, 2, 3

a = CC(=O)Nc1nc2ccc(-c3ccnc(Sc4ccccc4C(C)C)n3)cc2s1
b = CC(=O)Nc1nc2ccc(-c3cnccc3OC(F)F)cc2s1
c = CC(=O)Nc1nc2ccc(-c3cncc(OCC#N)c3)cc2s1
d = O=C(CN1CCOCC1)Nc1nc2ccc(-c3ccnc(OCc4ccccc4)n3)cc2s1
Hello, I need these entries ordered by IC50, highest reading first. Thanks! List the labels according to the requested ordering.
d, b, a, c
(d: 7330 nM, b: 3840 nM, a: 376 nM, c: 83.3 nM)

I = CC(=O)Nc1nc2ccc(-c3ccnc(N(C)S(=O)(=O)c4cccc(C)c4)n3)cc2s1
II = CC(=O)Nc1nc2ccc(-c3cnc(Cl)c(NS(=O)(=O)c4ccc(C(C)O)cc4)c3)cc2s1 (single isomer, unassigned) [Example 257]
Could you point out whether the larger IC50 belongs to I or to II ? Field: selected label. Fill in the label of the entry you choose.
I

P = COc1ccc(S(=O)(=O)Nc2cc(-c3ccc4nc(NC(C)=O)sc4c3)cnc2C#N)cc1
Q = CC(=O)Nc1nc2ccc(-c3cnc(Cl)c(OC(C)=O)c3)cc2s1
R = CC(=O)Nc1nc2ccc(-c3cnc(Cl)c(NS(=O)(=O)Cc4ccccc4)c3)cc2s1
S = CC(=O)Nc1nc2ccc(-c3cnc4c(c3)NC(C)(C)N4C)cc2s1
Rank entries according to their IC50, from the largest number down. Lab note: record answer as labels in requested order.
S, P, R, Q

###

Target Of Assay: PI3K α (Homo sapiens, UniProt P42336)
Construct: Full length p110 subunits of PI3K α, β and δ, N-terminally labeled with polyHis tag; polyHis (N)
Assay Summary: In vitro PI3 kinase enzyme assay (alpha), ATP loss, bioluminescence
Condition Label: read-out: PI3Kα ATP loss IC50
pIC50: −log10 of the molar value.
Quantity: pIC50

Here is how some molecules turned out for pIC50.
molecule=COc1ccc(-c2ccc3nc(NC(C)=O)sc3c2)cn1 quantity=pIC50 value_reported=7.13
molecule=CNc1nc2ccc(-c3cnc(Cl)c(NS(=O)(=O)c4ccc(C(C)=O)cc4)c3)cc2s1 quantity=pIC50 value_reported=7.92
molecule=CC(=O)Nc1nc2ccc(-c3cncc(OCCN4CCOCC4)c3)cc2s1 quantity=pIC50 value_reported=5.55
molecule="CC(=O)Nc1nc2ccc(-c3ccnc(N4CCCC4c4ccccc4)n3)cc2s1 (racemic)" quantity=pIC50 value_reported=5.58
molecule=CC(=O)Nc1nc2ccc(-c3ccnc(NS(=O)(=O)c4ccc(C)cc4)n3)cc2s1 quantity=pIC50 value_reported=7.46

I = CC(=O)Nc1nc2ccc(-c3ccnc(OCc4ccc(C)cc4)n3)cc2s1
II = CC(=O)Nc1nc2ccc(-c3ccnc(OCCCN(C)C)n3)cc2s1
III = CC(=O)Nc1nc2ccc(-c3cnc(Cl)c(NS(=O)(=O)c4ccc(C(C)O)cc4)c3)cc2s1 (stereo not drawn) [Example 256]
IV = COc1ncc(-c2ccc3nc(NC(C)=O)sc3c2)cc1N(C)C
Rank ascending by pIC50. # respond with the labels, arranged in the requested order
II, I, IV, III

P = CC(C)Nc1cc(-c2ccc3nc(NC(=O)C[C@@H]4CCCO4)sc3c2)cnc1Cl
Q = COc1cc(C)c(-c2ccc3nc(NC(C)=O)sc3c2)cn1
R = COCC(=O)Nc1nc2ccc(-c3cnc(Cl)c(N(C)C)c3)cc2s1
S = CC(=O)Nc1nc2ccc(-c3ccnc(N4CCCCC4)n3)cc2s1
// sort entries: pIC50, high to low Put the labels in the requested order and list them out.
R, P, Q, S

I = CC(=O)Nc1nc2ccc(-c3cncc(N(C)S(=O)(=O)c4ccc(Cl)cc4)c3)cc2s1
II = CC(=O)Nc1nc2ccc(-c3ccnc(NN4CCCCC4)n3)cc2s1
Of I and II , which carries the smaller reported pIC50 figure? Label of pick, please.
II
(II: 5.59, I: 6.27)

I = CC(=O)Nc1nc2ccc(-c3cncc(N(C)S(=O)(=O)c4ccc(C(F)(F)F)cc4)c3)cc2s1
II = CC(=O)Nc1nc2ccc(-c3cnc(Cl)c(NC(C)C)c3)cc2s1
API: POST /compare with I and II ; response names the item with higher pIC50. Give the label of your selection.
II
(II: 7.38, I: 5.98)

###

Target Of Assay: PI3K β (Homo sapiens)
Construct: Full length p110 subunits of PI3K α, β and δ, N-terminally labeled with polyHis tag; polyHis (N)
Assay Summary: In vitro PI3 kinase enzyme assay (beta), ATP loss, bioluminescence;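 further: purified p110β/p85 heterodimer with PtdIns(4,5)P2 as acceptor, incubated at room temperature, leftover ATP read by luminescence, inhibition scaled to compound-free wells with and without enzyme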
Condition Label: read-out: PI3Kβ ATP loss IC50
Quantity: IC50 (nM)

Use these answered entries as a reference point.
compound=CC(C)(C)OC(=O)Nc1nc2ccc(-c3nnc(N(Cc4ccccc4)S(C)(=O)=O)o3)cc2s1 quantity=IC50 value_reported=4760
compound=CC(=O)Nc1nc2ccc(-c3cnc(C(F)(F)F)c(O)c3)cc2s1 quantity=IC50 value_reported=159
compound="CC(=O)Nc1nc2ccc(-c3cnc(Cl)c(NS(=O)(=O)c4ccc(C(C)O)cc4)c3)cc2s1 (single isomer, unassigned) [Example 257]" quantity=IC50 value_reported=7.2
compound=CC(C)Nc1cc(-c2ccc3nc(N)sc3c2)cnc1Cl quantity=IC50 value_reported=1150
compound=CC(=O)Nc1nc2ccc(-c3cnccc3OC(F)F)cc2s1 quantity=IC50 value_reported=17100
compound=COc1ncc(-c2ccc3nc(NC(C)=O)sc3c2)cc1NC(C)C quantity=IC50 value_reported=424

I = CC(=O)Nc1nc2ccc(-c3cnc(C)c(NS(=O)(=O)c4ccccc4)c3)cc2s1
II = CC(=O)Nc1nc2ccc(-c3ccnc(N4CCCC4c4ccccc4)n3)cc2s1 (racemic)
For this pair, I and II , which shows a numerically higher IC50? Your answer should be the label attached to the chosen record.
II
